- Test system: Male spontaneously hypertensive rats (SHR), arterial blood pressure
- method_description: Depressor response after intravenous administration (30 μg/kg), Table 1
- Type: in vivo, rat
- condition: '90<' means greater than 90
So I've got a bunch of compounds here, and I need their Duration values.

Known results for compounds:
compound | measured_target | endpoint_value
COC(=O)C1=C(C)NC(C)=C(C(=O)OCC=CC=Cc2ccco2)C1c1cccc([N+](=O)[O-])c1 (centres unmarked) | Male spontaneously hypertensive rats (SHR), arterial blood pressure | > 90 min
COC(=O)C1=C(C)NC(C)=C(C(=O)OCC#Cc2ccccc2)C1c1cccc([N+](=O)[O-])c1 (centres unmarked) | Male spontaneously hypertensive rats (SHR), arterial blood pressure | > 90 min
CCOC(=O)C1=C(C)NC(C)=C(C(=O)OC(C)C=Cc2ccccc2)C1c1cccc([N+](=O)[O-])c1 (centres unmarked) | Male spontaneously hypertensive rats (SHR), arterial blood pressure | > 170 min
COC(=O)C1=C(C)NC(C)=C(C(=O)OCC=CC=Cc2cccc3ccccc23)C1c1cccc([N+](=O)[O-])c1 (centres unmarked) | Male spontaneously hypertensive rats (SHR), arterial blood pressure | > 90 min
COC(=O)C1=C(C)NC(C)=C(C(=O)OCC=C(c2ccccc2)c2ccccc2)C1c1cccc([N+](=O)[O-])c1 (centres unmarked) | Male spontaneously hypertensive rats (SHR), arterial blood pressure | > 240 min
COC(=O)C1=C(C)NC(C)=C(C(=O)OCCN(C)Cc2ccccc2)C1c1cccc([N+](=O)[O-])c1.Cl (centres unmarked) [B, reference compound] | Male spontaneously hypertensive rats (SHR), arterial blood pressure | 45 to 90 min
CC=CC=CCOC(=O)C1=C(C)NC(C)=C(C(=O)OCC=Cc2ccccc2)C1c1cccc([N+](=O)[O-])c1 (centres unmarked) | Male spontaneously hypertensive rats (SHR), arterial blood pressure | > 90 min
COC(=O)C1=C(C)NC(C)=C(C(=O)OCC=C(C)c2ccccc2)C1c1cccc([N+](=O)[O-])c1 (centres unmarked) | Male spontaneously hypertensive rats (SHR), arterial blood pressure | 65 min

Report Duration for each item below.
1. COC(=O)C1=C(C)NC(C)=C(C(=O)OC)C1c1ccccc1[N+](=O)[O-] [A, reference compound]
2. CCOC(=O)C1=C(C)NC(C)=C(C(=O)OCC=CC=Cc2ccccc2)C1c1cccc([N+](=O)[O-])c1 (centres unmarked)
3. CC=CC=CCOC(=O)C1=C(C)NC(C)=C(C(=O)OC)C1c1cccc(C(F)(F)F)c1 (centres unmarked)
4. CC1=C(C(=O)OCC=CC=Cc2ccccc2)C(c2cccc([N+](=O)[O-])c2)C(C(=O)OC(C)C)=C(C)N1 (centres unmarked)
5. COC(=O)C1=C(C)NC(C)=C(C(=O)OCCC=Cc2ccc(SC)cc2)C1c1cccc([N+](=O)[O-])c1 (centres unmarked)

1. 35.6 ± 6.5 min
2. > 90 min
3. > 120 min
4. > 90 min
5. 120 min

Entry CC=CC=CCOC(=O)C1=C(C)NC(C)=C(C(=O)OC2CCCCC2)C1c1cccc([N+](=O)[O-])c1 (centres unmarked) : reported Duration = ?
> 90 min

###

- Test system: Male spontaneously hypertensive rats (SHR), arterial blood pressure
- method_description: Depressor response after intraduodenal administration (1 mg/kg), Table 2
- Type: in vivo, rat
parameter: ΔBP (Maximum depressor response) (mmHg)
Numbers only, in mmHg.

compound | result_units | ΔBP (Maximum depressor response)
COC(=O)C1=C(C)NC(C)=C(C(=O)OC(C=Cc2ccccc2)c2ccccc2)C1c1cccc([N+](=O)[O-])c1 (stereo not drawn) [Example 27] | mmHg | 82
COC(=O)C1=C(C)NC(C)=C(C(=O)OCC/C=C/c2ccc3ccccc3c2)C1c1cccc([N+](=O)[O-])c1 (stereo not drawn) [12 (trans)] | mmHg | 25
COC(=O)C1=C(C)NC(C)=C(C(=O)OC)C1c1ccccc1[N+](=O)[O-] [A, reference compound] | mmHg | 48.3
CCOC(=O)C1=C(C)NC(C)=C(C(=O)OCC=Cc2ccccc2)C1c1cccc([N+](=O)[O-])c1 (stereo not drawn) [Example 15] | mmHg | 45
C#CCOC(=O)C1=C(C)NC(C)=C(C(=O)OC)C1c1cccc([N+](=O)[O-])c1 (stereo not drawn) [D, reference compound] | mmHg | 0

Hi there! I need ΔBP (Maximum depressor response) for each item below, if you can.
1. COC(=O)C1=C(C)NC(C)=C(C(=O)OCCC=Cc2cccs2)C1c1cccc([N+](=O)[O-])c1 (stereo not drawn) [Example 11]
2. COC(=O)C1=C(C)NC(C)=C(C(=O)OCCN(C)Cc2ccccc2)C1c1cccc([N+](=O)[O-])c1.Cl (stereo not drawn) [B, reference compound]
3. COC(=O)C1=C(C)NC(C)=C(C(=O)OCCC=Cc2ccc(C#N)cc2)C1c1cccc([N+](=O)[O-])c1 (stereo not drawn) [Example 17]
4. C=CCOC(=O)C1=C(C)NC(C)=C(C(=O)OC)C1c1cccc([N+](=O)[O-])c1 (stereo not drawn) [C, reference compound]
5. COC(=O)C1=C(C)NC(C)=C(C(=O)OCCCc2ccccc2)C1c1cccc([N+](=O)[O-])c1 (stereo not drawn) [E, reference compound]

25
35
25
20
0

Kindly give each listed record's ΔBP (Maximum depressor response).
1. CC=CC=CCOC(=O)C1=C(C)NC(C)=C(C(=O)OC)C1c1cccc([N+](=O)[O-])c1 (stereo not drawn) [Example 66]
2. COC(=O)C1=C(C)NC(C)=C(C(=O)OC/C=C/c2ccccc2)C1c1cccc([N+](=O)[O-])c1 (stereo not drawn) [Example 1]

[65, 35.0]

###

- Tested on: rat (SHR), blood pressure and heart rate
- method_description: Depressor response of trans- and cis-forms, dose-response intravenous, Tables 5 and 6
- Type: in vivo
- condition: 30 μg/kg i.v.
- Procedure: Male spontaneously hypertensive rats (SHR) which had mean arterial blood pressures higher than 140 mmHg were used for the experiments. Arterial blood pressure was measured through the catherized artery with a pressure transducer (MPU-0.5, manufactured by Nihon Kohden Kabushiki Kaisha). The catheter was inserted into the abdominal aorta via the median coccygcal artery of SHR under light ether anesthesia. The recordings were made on a rectigraph (manufactured by Sanei Sokki Kabushiki Kaisha). […]
parameter: MaxΔHR (Heart rates) (beats/min)
One number for each entry, in beats/min.

Worked examples follow.
molecule | MaxΔHR (Heart rates) (beats/min)
COC(=O)C1=C(C)NC(C)=C(C(=O)OCC/C=C\c2ccc3ccccc3c2)C1c1cccc([N+](=O)[O-])c1 (stereo not shown) [Example 57] | 62.5
COC(=O)C1=C(C)NC(C)=C(C(=O)OCC/C=C/c2ccc3ccccc3c2)C1c1cccc([N+](=O)[O-])c1 (stereo not drawn) [12 (trans)] | 90.0
COC(=O)C1=C(C)NC(C)=C(C(=O)OC/C=C/c2ccccc2)C1c1cccc([N+](=O)[O-])c1 (stereo not shown) [Example 1] | 65.3

# input molecule: COC(=O)C1=C(C)NC(C)=C(C(=O)OC/C=C\c2ccccc2)C1c1cccc([N+](=O)[O-])c1 (stereo not shown) [Example 56] ; wanted: its MaxΔHR (Heart rates)
80.0

###

- System: rat (SHR), blood pressure and heart rate
- method_description: Depressor response of trans- and cis-forms, dose-response intravenous, Tables 5 and 6
- Type: in vivo
- condition: 10 μg/kg i.v.
What MaxΔHR (Heart rates) was measured for each of the following?
Quick note: unit goes after the number.

Worked cases, MaxΔHR (Heart rates) given:
molecule | endpoint_value
COC(=O)C1=C(C)NC(C)=C(C(=O)OCC/C=C\c2ccc3ccccc3c2)C1c1cccc([N+](=O)[O-])c1 (stereo not shown) | 23.3 beats/min
COC(=O)C1=C(C)NC(C)=C(C(=O)OCC/C=C/c2ccc3ccccc3c2)C1c1cccc([N+](=O)[O-])c1 (stereo not drawn) [12 (trans)] | 43.3 beats/min
COC(=O)C1=C(C)NC(C)=C(C(=O)OC/C=C/c2ccccc2)C1c1cccc([N+](=O)[O-])c1 (stereo not shown) | 28.3 beats/min

// query MaxΔHR (Heart rates) value for entry COC(=O)C1=C(C)NC(C)=C(C(=O)OC/C=C\c2ccccc2)C1c1cccc([N+](=O)[O-])c1 (stereo not shown)
30.0 beats/min

###

- Tested on: Male spontaneously hypertensive rats (SHR), arterial blood pressure
- method_description: Depressor response after intravenous administration (30 μg/kg), Table 1
- Format: in vivo, rat
- condition: '90<' means greater than 90
I'd appreciate it if you could supply Duration values for the items below.

Below are worked cases with known answers.
compound | measured_target | Duration
CC=CC=CCOC(=O)C1=C(C)NC(C)=C(C(=O)OC(C)C)C1c1cccc([N+](=O)[O-])c1 (stereo not shown) | Male spontaneously hypertensive rats (SHR), arterial blood pressure | > 90 min
CCSCCOC(=O)C1=C(C)NC(C)=C(C(=O)OCC=Cc2ccccc2)C1c1cccc([N+](=O)[O-])c1 (stereo not shown) | Male spontaneously hypertensive rats (SHR), arterial blood pressure | > 120 min
COC(=O)C1=C(C)NC(C)=C(C(=O)OC(C=Cc2ccccc2)C(C)(C)C)C1c1cccc([N+](=O)[O-])c1 (stereo not shown) | Male spontaneously hypertensive rats (SHR), arterial blood pressure | > 90 min
COC(=O)C1=C(C)NC(C)=C(C(=O)OCCC=Cc2ccc(C)cc2)C1c1cccc([N+](=O)[O-])c1 (stereo not shown) | Male spontaneously hypertensive rats (SHR), arterial blood pressure | 90 min

Please state Duration for every compound in the list that follows.
1. CC1=C(C(=O)OCC=Cc2ccccc2)C(c2cccc([N+](=O)[O-])c2)C(C(=O)OCCSc2ccccc2)=C(C)N1 (stereo not shown)
2. CC=CC=CCOC(=O)C1=C(C)NC(C)=C(C(=O)OCC)C1c1cccc([N+](=O)[O-])c1 (stereo not shown)
3. COCCOC(=O)C1=C(C)NC(C)=C(C(=O)OC(C)C=Cc2ccccc2)C1c1cccc([N+](=O)[O-])c1 (stereo not shown)

1. > 90 min
2. > 90 min
3. > 230 min

Quick batch: Duration for everything below.
1. COC(=O)C1=C(C)NC(C)=C(C(=O)OCCC=Cc2cccs2)C1c1cccc([N+](=O)[O-])c1 (stereo not shown)
2. COCCOC(=O)C1=C(C)NC(C)=C(C(=O)OCC=CC=Cc2ccccc2)C1c1cccc([N+](=O)[O-])c1 (stereo not shown)
3. CC1=C(C(=O)OCC=Cc2ccccc2)C(c2cccc([N+](=O)[O-])c2)C(C(=O)OC(C)C=Cc2ccccc2)=C(C)N1 (stereo not shown)

["100 min", "> 90 min", "> 120 min"]
